Cited source: paper PMC10786891

Reported pKd by item:
tested-system: T1, EsCas13d, nuclease-dead (Eubacterium siraeum, UniProt B0MS50, R295A;H300A;R849A;H854A)
T1 sequence: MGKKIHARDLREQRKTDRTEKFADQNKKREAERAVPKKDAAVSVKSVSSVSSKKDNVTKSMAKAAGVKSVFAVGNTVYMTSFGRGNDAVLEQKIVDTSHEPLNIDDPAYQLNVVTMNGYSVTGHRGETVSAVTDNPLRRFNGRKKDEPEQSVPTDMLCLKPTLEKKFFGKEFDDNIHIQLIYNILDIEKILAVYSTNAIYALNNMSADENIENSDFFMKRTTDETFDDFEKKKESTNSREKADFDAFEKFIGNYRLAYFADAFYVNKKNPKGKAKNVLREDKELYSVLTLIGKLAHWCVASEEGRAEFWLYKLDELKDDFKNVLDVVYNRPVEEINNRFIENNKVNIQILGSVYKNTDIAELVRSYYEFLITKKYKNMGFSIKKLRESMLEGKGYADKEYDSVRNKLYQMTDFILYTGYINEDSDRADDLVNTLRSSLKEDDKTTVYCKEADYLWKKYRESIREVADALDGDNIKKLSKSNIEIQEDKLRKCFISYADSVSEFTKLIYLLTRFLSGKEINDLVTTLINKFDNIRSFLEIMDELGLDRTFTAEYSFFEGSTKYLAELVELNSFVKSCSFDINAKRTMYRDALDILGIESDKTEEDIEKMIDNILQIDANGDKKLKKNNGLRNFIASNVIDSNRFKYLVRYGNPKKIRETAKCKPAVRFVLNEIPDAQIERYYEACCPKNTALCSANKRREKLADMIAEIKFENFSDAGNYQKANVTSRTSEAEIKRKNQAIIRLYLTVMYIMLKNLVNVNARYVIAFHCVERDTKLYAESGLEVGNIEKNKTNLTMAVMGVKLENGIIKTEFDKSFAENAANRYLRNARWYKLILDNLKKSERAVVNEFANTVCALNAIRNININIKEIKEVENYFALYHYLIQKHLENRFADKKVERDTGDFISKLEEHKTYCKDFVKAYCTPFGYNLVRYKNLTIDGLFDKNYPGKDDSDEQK
procedure-details: crRNA (strand 1, pre-loaded); Mg2+; 40 mM Tris-HCl pH 7.5, 150 mM NaCl, 6 mM MgCl2, 1 mM DTT, 0.1% Tween-20, 0.2 mg/ml BSA; 25 C; 10 min per concentration, then washed
condition-details: tags: His6-TwinStrep-SUMO cleaved; N-terminal SNAP kept (SNAP-Surface 488); label: 3' end held by stalled T7 RNA polymerase
pKd: −log10 of the molar value.
recorded-metric: pKd

binder="target 2 MT 5'PFS CGC 3'PFS AUU (mixed) RNA 1: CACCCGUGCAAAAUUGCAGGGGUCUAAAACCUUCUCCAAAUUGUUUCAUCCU RNA 2: GGGAAUGGAUCCACAUCUACGAAUUCCGCAGGAUGAAACAAUUUGGAGAAGAUUAGAUCGGAAGAGCACACGU" reported_value=8.30
binder="target 2 MT 5'PFS GAG 3'PFS ACA (mixed) RNA 1: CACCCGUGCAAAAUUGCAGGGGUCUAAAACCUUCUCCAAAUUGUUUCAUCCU RNA 2: GGGAAUGGAUCCACAUCUACGAAUUCGAGAGGAUGAAACAAUUUGGAGAAGACAAGAUCGGAAGAGCACACGU" reported_value=8.02
binder="target 1 MT 5'PFS GUC 3'PFS GCG (mixed) RNA 1: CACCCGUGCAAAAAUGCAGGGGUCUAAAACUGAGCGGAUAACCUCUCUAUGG RNA 2: GGGAAUGGAUCCACAUCUACGAAUUCGUCCCAUAGAGAGGUUAUCCGCUCAGCGAGAUCGGAAGAGCACACGU" reported_value=7.81
